Reference for the values: the Human Domainome abundance scans (Beltran et al. 2025)

B1: Membrane-associated guanylate kinase, WW and PDZ domain-containing protein 2, residues 601 to 682; numbered along this chain, Q86UL8 (parent)
chain: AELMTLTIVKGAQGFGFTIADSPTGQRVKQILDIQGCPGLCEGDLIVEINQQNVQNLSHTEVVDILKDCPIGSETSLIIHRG

Variants of: B1
Test: abundance fitness (aPCA) (normalised: wild type 0, dead -1); higher = more abundant; growth selection in yeast, the domain comes from the species named
Conditions: Homo sapiens
MEASURE_NAME: abundance fitness
API doc: respond with a numeric literal and nothing else, no unit.

mutation_name=E48Q measured_value=-0.098
mutation_name=C37D measured_value=-0.052
mutation_name=H59I measured_value=-0.142
mutation_name=G36P measured_value=-0.057
mutation_name=T18K measured_value=0.044

Problem: Field request: abundance fitness | item: V28P
Result: -1.09

Problem: Would you mind doing Q26H as well?
Result: -0.124

Problem: Subsequent entry: T75K
Result: -0.133
